Every entry's value here was drawn from patent US8796268B2.

- target-or-system: Human PI3K delta (Homo sapiens)
- Construct: His (N); host or cells: SF9 insect cells (baculovirus)
- Sequence (O00329 whole entry): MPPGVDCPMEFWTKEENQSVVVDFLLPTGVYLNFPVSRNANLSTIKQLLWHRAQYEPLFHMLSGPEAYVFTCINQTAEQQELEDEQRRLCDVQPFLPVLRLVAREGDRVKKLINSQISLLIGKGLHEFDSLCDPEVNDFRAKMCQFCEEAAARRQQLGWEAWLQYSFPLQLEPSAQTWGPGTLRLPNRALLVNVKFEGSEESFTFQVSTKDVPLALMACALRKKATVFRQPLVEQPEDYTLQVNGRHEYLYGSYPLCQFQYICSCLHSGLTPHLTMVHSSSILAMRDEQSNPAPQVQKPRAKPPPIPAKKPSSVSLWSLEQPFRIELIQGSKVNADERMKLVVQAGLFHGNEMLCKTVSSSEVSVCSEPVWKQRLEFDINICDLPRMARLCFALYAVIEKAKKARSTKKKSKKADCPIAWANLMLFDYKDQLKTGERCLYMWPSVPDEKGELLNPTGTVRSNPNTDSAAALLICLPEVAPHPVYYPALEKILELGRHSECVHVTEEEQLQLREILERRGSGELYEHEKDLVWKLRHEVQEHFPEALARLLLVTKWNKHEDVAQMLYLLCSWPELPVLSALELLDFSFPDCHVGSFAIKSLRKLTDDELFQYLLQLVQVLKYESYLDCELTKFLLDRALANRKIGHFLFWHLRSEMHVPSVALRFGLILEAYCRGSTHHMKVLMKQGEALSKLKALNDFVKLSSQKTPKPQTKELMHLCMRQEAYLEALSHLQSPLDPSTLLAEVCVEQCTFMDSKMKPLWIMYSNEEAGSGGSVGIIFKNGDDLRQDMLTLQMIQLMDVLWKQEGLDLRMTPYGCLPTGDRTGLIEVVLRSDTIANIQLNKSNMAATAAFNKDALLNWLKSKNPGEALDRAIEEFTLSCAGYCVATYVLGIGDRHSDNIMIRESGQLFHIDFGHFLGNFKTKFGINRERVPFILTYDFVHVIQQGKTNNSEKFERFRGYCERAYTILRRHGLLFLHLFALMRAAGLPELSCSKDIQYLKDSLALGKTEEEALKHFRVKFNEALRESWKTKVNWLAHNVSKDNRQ
- Sequence (P27986 whole entry partner): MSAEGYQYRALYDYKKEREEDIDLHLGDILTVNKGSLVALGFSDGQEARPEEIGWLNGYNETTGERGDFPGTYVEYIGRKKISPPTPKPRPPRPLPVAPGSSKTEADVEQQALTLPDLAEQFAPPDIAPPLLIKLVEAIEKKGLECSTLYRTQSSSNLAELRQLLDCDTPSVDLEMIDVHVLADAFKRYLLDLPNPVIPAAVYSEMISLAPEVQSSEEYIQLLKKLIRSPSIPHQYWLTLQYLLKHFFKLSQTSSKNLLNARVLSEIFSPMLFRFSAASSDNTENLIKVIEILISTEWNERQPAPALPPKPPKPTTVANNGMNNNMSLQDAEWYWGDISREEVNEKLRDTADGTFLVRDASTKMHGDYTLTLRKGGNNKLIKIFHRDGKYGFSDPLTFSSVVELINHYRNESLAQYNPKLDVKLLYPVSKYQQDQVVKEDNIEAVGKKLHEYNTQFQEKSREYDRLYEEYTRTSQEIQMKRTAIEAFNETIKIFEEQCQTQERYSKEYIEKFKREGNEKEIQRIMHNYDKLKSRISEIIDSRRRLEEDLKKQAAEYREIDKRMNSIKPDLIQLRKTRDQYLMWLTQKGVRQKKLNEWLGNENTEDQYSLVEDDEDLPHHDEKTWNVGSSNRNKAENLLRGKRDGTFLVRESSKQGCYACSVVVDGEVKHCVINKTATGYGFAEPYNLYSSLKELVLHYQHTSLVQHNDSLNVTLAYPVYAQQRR
- assay-details: Human PI3K delta enzyme assay (HTRF)
- Type: biochemical
- condition-details: concentration not given; b1389 states 1.0 μM for PI3K δ and γ; read-out: p110 delta Percent Inhibition

{"columns": ["compound", "target-or-system", "inhibition at 1 µM, %"],
 "data": [
  ["CC(=O)Nc1cc(-c2cc(C(OCC3CCCC3)c3ccc(Cl)cc3)c(-c3nnc[nH]3)s2)ccn1 (centres unmarked)", "Human PI3K delta (Homo sapiens)", 83],
  ["CN(C)CCC(c1ccc(Cl)c(Cl)c1)c1c(C(=O)O)sc(N2CCOCC2)c1C#N (centres unmarked)", "Human PI3K delta (Homo sapiens)", 107],
  ["N#Cc1c(N2CCOCC2)sc(C(=O)O)c1C(CCO)c1ccc(Cl)c(Cl)c1 (centres unmarked)", "Human PI3K delta (Homo sapiens)", 111],
  ["CC(=O)Nc1cc(-c2cc(C(c3ccc(Cl)cc3)N(C)C3CN(C)C3)c(-c3nnc[nH]3)s2)ccn1 (centres unmarked)", "Human PI3K delta (Homo sapiens)", 107],
  ["OC(c1cc(-c2ccncc2)sc1-c1nnc[nH]1)c1ccnc2ccccc12 (centres unmarked)", "Human PI3K delta (Homo sapiens)", 36],
  ["CC(=O)Nc1cc(-c2cc(/C(=C/CCN(C)C)c3ccc(Cl)cc3)c(-c3nnc[nH]3)s2)ccn1", "Human PI3K delta (Homo sapiens)", 84],
  ["CC(=O)Nc1cc(-c2cc(C(c3ccc(Cl)cc3)N3CC[C@@H](O)C3)c(-c3nnc[nH]3)s2)ccn1 (some centres unmarked)", "Human PI3K delta (Homo sapiens)", 112],
  ["CC(=O)Nc1cc(-c2cc([C@@H](c3ccc(Cl)cc3)N(C)C)c(-c3nnc[nH]3)s2)ccn1 (single isomer, unassigned)", "Human PI3K delta (Homo sapiens)", 90],
  ["N#Cc1c(-c2ccnnc2)sc(-c2nnc[nH]2)c1C(c1ccc2ccccc2c1)N1CCNCC1 (centres unmarked)", "Human PI3K delta (Homo sapiens)", 60],
  ["CC(=O)Nc1cc(-c2cc(C(c3ccc(Cl)cc3)N3CCNCC3)c(-c3nnc[nH]3)s2)ccn1 (centres unmarked)", "Human PI3K delta (Homo sapiens)", 108],
  ["CC(c1ccc(Cl)c(Cl)c1)c1nc(N2CCOCC2)sc1C(=O)O (centres unmarked)", "Human PI3K delta (Homo sapiens)", 91],
  ["CC(=O)Nc1cc(-c2cc(C(c3ccc(Cl)cc3)N3CCC[C@H]3CO)c(-c3nnc[nH]3)s2)ccn1 (single isomer, unassigned)", "Human PI3K delta (Homo sapiens)", 101],
  ["OC(c1ccc(-c2ncccn2)cc1)c1cc(-c2ccncc2)sc1-c1nnc[nH]1 (centres unmarked)", "Human PI3K delta (Homo sapiens)", 60],
  ["CC(=O)Nc1cc(-c2cc(C(c3ccc(Cl)cc3)N3CC[C@H](O)C3)c(-c3nnc[nH]3)s2)ccn1 (some centres unmarked)", "Human PI3K delta (Homo sapiens)", 112],
  ["CC(=O)Nc1cc(-c2cc(C(O)(CCCN(C)C)c3ccc(Cl)cc3)c(-c3nnc[nH]3)s2)ccn1 (centres unmarked)", "Human PI3K delta (Homo sapiens)", 97],
  ["OC(c1ccc2c(c1)OCO2)c1cc(-c2ccncc2)sc1-c1nnc[nH]1 (centres unmarked)", "Human PI3K delta (Homo sapiens)", 57],
  ["Cc1ccc(C(O)c2cc(-c3ccncc3)sc2-c2nnc[nH]2)c(C)c1 (centres unmarked)", "Human PI3K delta (Homo sapiens)", 66],
  ["COc1ccc2ccc(Cc3nc(N4CCOCC4)sc3C(=O)O)cc2c1", "Human PI3K delta (Homo sapiens)", 107],
  ["O=C(O)c1sc(N2CCOCC2)nc1Cc1ccc2cnccc2c1", "Human PI3K delta (Homo sapiens)", 56],
  ["C=CCC(c1ccc(Cl)c(Cl)c1)c1c(C(=O)O)sc(N2CCOCC2)c1C#N (centres unmarked)", "Human PI3K delta (Homo sapiens)", 105],
  ["O=C(O)c1sc(N2CCOCC2)nc1Cc1ccc2c(F)cccc2c1", "Human PI3K delta (Homo sapiens)", 104],
  ["N#Cc1c(N2CCOCC2)sc(C(=O)O)c1Cc1ccc2ccncc2c1", "Human PI3K delta (Homo sapiens)", 108],
  ["CN[C@@H]1CCN(C(c2ccc(Cl)cc2)c2cc(-c3ccnc(NC(C)=O)c3)sc2-c2nnc[nH]2)C1 (some centres unmarked)", "Human PI3K delta (Homo sapiens)", 108]
]}
